# CC50 at 3 days per record follows
Assay explanation: CC50 assay (CellTiter-Glo) in Huh-7 HCV replicon cells
Assay type: cell-based
Experimental context: human, Table 2, 3 days incubation

Structure string: [2H]C([2H])([2H])C([2H])([2H])Oc1ccc(-c2ccc3nc(NCc4ccc(-n5cncn5)cc4)nc(NCC(F)(F)F)c3n2)cn1
CC50 at 3 days: > 10 µM

Structure string: COc1ccc(-c2ccc3nc(NCc4cccc(S(N)(=O)=O)c4)nc(NCC(F)(F)F)c3n2)cc1S(C)(=O)=O
CC50 at 3 days: 1 to 10 µM

Structure string: C[C@@H](Nc1nc(NCC(F)(F)F)c2nc(-c3cncc(S(C)(=O)=O)c3)ccc2n1)c1ccc(S(N)(=O)=O)cc1
CC50 at 3 days: > 10 µM

Structure string: NS(=O)(=O)c1cccc(CNc2nc(NC3(C(F)(F)F)CCCCC3)c3nc(-c4ccc(F)cc4)ccc3n2)c1
CC50 at 3 days: > 10 µM

Structure string: C[C@@H](Nc1nc(NC2(C(F)(F)F)CCC2)c2nc(-c3ccc(F)cc3)ccc2n1)c1ccc(S(N)(=O)=O)cc1
CC50 at 3 days: > 10 µM

Structure string: Cc1nccn1-c1cccc(CNc2nc(NC3(C(F)(F)F)CC3)c3nc(-c4ccc(F)cc4)ccc3n2)c1
CC50 at 3 days: 1 to 10 µM

Structure string: C[C@@H](Nc1nc(O[C@@H]2C[C@@H]3C[C@@H]3C2)c2nc(C#CC3CC3)ccc2n1)c1ccc(S(N)(=O)=O)cc1
CC50 at 3 days: 1 to 10 µM

Structure string: NS(=O)(=O)c1ccc(CNc2nc(OC3CC3)c3nc(C#CC4CC4)ccc3n2)cc1
CC50 at 3 days: > 10 µM

Structure string: Cc1ccc(-c2ccc3nc(NCc4ccc(-n5cncn5)cc4)nc(NCC(F)(F)F)c3n2)cc1S(C)(=O)=O
CC50 at 3 days: > 10 µM

Structure string: Cc1ccc(-c2ccc3nc(NCc4ccc(-n5cncn5)cc4)nc(NC4(C(F)(F)F)CC4)c3n2)cc1S(N)(=O)=O
CC50 at 3 days: 1 to 10 µM

Structure string: CCOc1ccc(-c2ccc3nc(NCc4ccc(-n5cncn5)cc4)nc(NC4(C(F)(F)F)CC4)c3n2)cn1
CC50 at 3 days: 1 to 10 µM

Structure string: CCOc1ccc(-c2ccc3nc(N[C@H](C)c4ccc(S(N)(=O)=O)cc4)nc(NCC(F)(F)F)c3n2)cc1S(N)(=O)=O
CC50 at 3 days: > 10 µM

Structure string: COc1ccc(-c2ccc3nc(NCc4cccc(C(F)(F)F)c4)nc(NC4(C(F)(F)F)CC4)c3n2)cc1S(C)(=O)=O
CC50 at 3 days: > 10 µM

Structure string: COc1ccc(-c2ccc3nc(N[C@H](C)c4ccc(-n5cncn5)cc4)nc(NCC(F)(F)F)c3n2)cc1S(C)(=O)=O
CC50 at 3 days: 1 to 10 µM
